System: H630 cells
Experiment: MTT cell viability assay, H630 cells
Type: cell-based
Settings: absence of chemotherapy, read-out: IC50(72h) dose
pIC50: −log10 of the molar value.
Metric: pIC50

Inquiry: Entry FT siRNA: siRNA inhibiting both splice variants of c-FLIP; sequence AAGCAGTCTGTTCAAGGAGCA (AAGCAGTCTGTTCAAGGAGCA; chemistry not given here) has what pIC50?
Reply text: ~7.60

* * *

Test system: HCT116p53-/- cells
Test: MTT cell viability assay, HCT116 p53 null cells
Type: cell-based, human
Conditions: HCT116 p53 null cells; absence of chemotherapy; read-out: IC50(72h) dose
pIC50: −log10 of the molar value.
Metric: pIC50

Inquiry: Entry FT siRNA: siRNA inhibiting both splice variants of c-FLIP; sequence AAGCAGTCTGTTCAAGGAGCA (AAGCAGTCTGTTCAAGGAGCA; chemistry not given here) has what pIC50?
Reply text: ~8.60
